Molecular target: human SIRT3 (Homo sapiens)
Construct: corresponded to amino acid residues 102-399 of human SIRT3 with an N-terminal His-tag; His-tag (N)
Sequence (Q9NTG7 102-399): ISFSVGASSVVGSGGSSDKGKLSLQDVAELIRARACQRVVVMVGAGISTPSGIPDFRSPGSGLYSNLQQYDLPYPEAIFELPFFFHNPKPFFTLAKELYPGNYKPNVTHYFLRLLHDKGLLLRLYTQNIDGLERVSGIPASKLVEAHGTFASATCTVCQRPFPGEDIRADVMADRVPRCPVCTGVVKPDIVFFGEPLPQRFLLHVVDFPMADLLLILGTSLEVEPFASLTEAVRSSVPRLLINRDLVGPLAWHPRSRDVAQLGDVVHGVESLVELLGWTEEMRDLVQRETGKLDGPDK
Test: Fluorescence polarization assay to identify modulators of SIRT3 activity (Histone H4-based peptide deacetylation)
Settings: activation of SIRT3, Table 6; read-out: ED50 (the source's name)
pEC50: −log10 of the molar value.

| COMPOUND | ASSAYED_TARGET | pEC50 |
| --- | --- | --- |
| O=C(Nc1ccccc1N1CCOCC1)c1cc(-c2ccco2)nc2ccccc12 [Compound 8] | human SIRT3 (Homo sapiens) | > 4.30 |
